# Test system: Bacteroides tectum
# protocol-description: Agar dilution MIC
# Type: cell-based
# experimental-context: Bacteroides pyogenes, 22 isolates; read-out: Minimal Inhibitory Concentration 90% (MIC90)
Kindly state MIC90 for each of the entries shown.
One number for each entry, in µg/mL.

A selection of reference data follows.
{"columns": ["structure", "unit-text", "MIC90"],
 "data": [
  ["CC[C@H]1OC(=O)[C@H](C)[C@@H](O[C@H]2C[C@@](C)(OC)[C@@H](O)[C@H](C)O2)[C@H](C)[C@@H](O[C@@H]2O[C@H](C)C[C@H](N(C)C)[C@H]2O)[C@](C)(OC)C[C@@H](C)C(=O)[C@H](C)[C@@H](O)[C@]1(C)O", "µg/mL", 0.125],
  ["CC[C@H]1OC(=O)[C@H](C)[C@@H](O[C@H]2C[C@@](C)(OC)[C@@H](O)[C@H](C)O2)[C@H](C)[C@@H](O[C@@H]2O[C@H](C)C[C@H](N(C)C)[C@H]2O)[C@](C)(O)C[C@@H](C)C(=O)[C@H](C)[C@@H](O)[C@]1(C)O", "µg/mL", 0.5],
  ["N[C@@H]1[C@H]2CN(c3nc4c(cc3F)c(=O)c(C(=O)O)cn4-c3ccc(F)cc3F)C[C@@H]12", "µg/mL", 0.125],
  ["Cc1ncc([N+](=O)[O-])n1CCO", "µg/mL", 0.5]
]}

Incoming: What does the record list as MIC90 for CC[C@H]1OC(=O)[C@H](C)[C@@H](O[C@H]2C[C@@](C)(OC)[C@@H](O)[C@H](C)O2)[C@H](C)[C@@H](O[C@@H]2O[C@H](C)C[C@H](N(C)C)[C@H]2O)[C@](C)(O)C[C@@H](C)CN(C)[C@H](C)[C@@H](O)[C@]1(C)O ?
Outgoing: 2
